target: CORO2B; assay: pooled miR-30 sensor sort-seq; sequence = guide strand; details: shRNA; further: reference of the scale not given here
The label depends only on sensor-assay potency score (higher = more potent): yes if it is at least -0.9, no if it is smaller.

Illustrative cases are given below, each with its answer.
TTTCTAATAAATCTATTCCGTT	no
TATTTCAATTCTATCCTTGGGA	yes
TAGACATTCCGGAACTTGGAGC	no
TTGTCGTGCACATTCTTGGTGA	yes
TTCTTGTCCTTGCACGTGGTGG	no
ATCTGTCTTGTGTTCCACCTGG	yes

Query: Is reported sensor-assay potency score (higher = more potent) greater than or equal to -0.9 here: TAATGCATCTAGTAGATCCTAG
Result: yes
